Entry source: patent US20240238265A1

# System: EBOV (strain kikwit)
# run_description: microbe, parasite or virus in culture
# Format: cell-based, Ebola virus (EBOV)
# assay_context: Zaire ebolavirus, HeLa, read-out: EBOV-Kikwit EC50 (uM)
endpoint_label: EC50 (µM)
Give the quantity in µM, number only.

Quick one: give measured EC50 for CCC1C2CC3(C(=O)N[C@H]4CC[C@H](N)CC4)CC1CC(c1ccccc1)(C2)C3 (stereo partly shown) [Example F2]
0.11
